Study System: T1, human TGFβ3 (human, UniProt P10600 301-412)
T1 sequence: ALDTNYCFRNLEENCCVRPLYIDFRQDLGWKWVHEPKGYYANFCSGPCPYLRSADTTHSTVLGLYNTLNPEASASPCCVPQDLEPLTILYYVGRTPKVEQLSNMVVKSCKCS
Method Summary: Biacore off-rate vs wt GC1008, 50 nM
Recorded kd var/kd wt, one value per entry.
Just the number, please.

Please review the following examples before continuing.
Binder	Property	Reported Result
D56S (antibody, V domains shown, GC1008 IgG4 variant) VH: QVQLVQSGAEVKKPGSSVKVSCKASGYTFSSNVISWVRQAPGQGLEWMGGVIPIVSIANYAQRFKGRVTITADESTSTTYMELSSLRSEDTAVYYCASTLGLVLDAMDYWGQGTLVTVSS VL: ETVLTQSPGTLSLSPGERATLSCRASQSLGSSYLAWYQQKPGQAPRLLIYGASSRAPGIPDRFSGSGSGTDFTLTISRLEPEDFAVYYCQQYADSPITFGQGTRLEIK	kd var/kd wt	1
D56T (antibody, V domains shown, GC1008 IgG4 variant) VH: QVQLVQSGAEVKKPGSSVKVSCKASGYTFSSNVISWVRQAPGQGLEWMGGVIPIVTIANYAQRFKGRVTITADESTSTTYMELSSLRSEDTAVYYCASTLGLVLDAMDYWGQGTLVTVSS VL: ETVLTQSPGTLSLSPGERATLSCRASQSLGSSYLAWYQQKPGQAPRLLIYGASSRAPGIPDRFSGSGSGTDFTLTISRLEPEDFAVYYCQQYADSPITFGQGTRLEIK	kd var/kd wt	1.2

Now take the following binder into account.
input: Sample I52T (antibody, V domains shown, GC1008 IgG4 variant) VH: QVQLVQSGAEVKKPGSSVKVSCKASGYTFSSNVISWVRQAPGQGLEWMGGVTPIVDIANYAQRFKGRVTITADESTSTTYMELSSLRSEDTAVYYCASTLGLVLDAMDYWGQGTLVTVSS VL: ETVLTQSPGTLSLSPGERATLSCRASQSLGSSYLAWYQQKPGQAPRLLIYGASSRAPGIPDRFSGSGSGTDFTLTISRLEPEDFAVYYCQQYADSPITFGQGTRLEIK — what was its kd var/kd wt?
output: 2.1

Every entry's value here was drawn from patent US20170342144A1.
